Target: T1, human IGFBP1 (human, UniProt P08833 26-259)
T1 construct: Bought protein
T1 sequence (looked up): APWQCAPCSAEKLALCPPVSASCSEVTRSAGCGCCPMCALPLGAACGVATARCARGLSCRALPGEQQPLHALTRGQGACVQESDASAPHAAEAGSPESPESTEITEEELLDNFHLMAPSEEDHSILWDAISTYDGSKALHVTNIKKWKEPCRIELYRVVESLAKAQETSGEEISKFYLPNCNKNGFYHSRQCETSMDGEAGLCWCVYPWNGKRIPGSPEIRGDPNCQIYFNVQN
Test: ELISA, scFv, secondary screening

BINDER	binding result
A09 scFv (scFv, V domains shown) VH: QVQLVESGAEVKKPGASVKVSCKASGYTFTSYGISWVRQAPGQGLEWMGWISAYNGNTNYAQKLQGRVTMTTDTSTSTAYMELRSLRSDDTAVYYCAREWELLGGLDYWGQGTLVTVSS VL: QSALTQPASVSGSPGQSITISCTGTSSDVGGYNYVSWYQQHPGKAPKLMIYEVSNRPSGVSNRFSGSKSGNTASLTISGLQAEDEADYYCSSYTSSSTVVFGGGTKLTVL	no binding
D10 scFv (scFv, V domains shown, scFv as screened by ELISA) VH: QVQLVQSGAEVKKPGASVKVSCKASGYTFTSYGISWVRQAPGQGLEWMGWISAYNGNTNYAQKLQGRVTMTTDTSTSTAYMELRSLRSDDTAVYYCARDRYLGWFDPWGQGTLVTVSS VL: QSALTQPASVSGSPGQSITISCTGTSSDVGGYNYVSWYQQHPGKAPKLMIYEVSNRPSGVSNRFSGSKSGNTASLTISGLQAEDEADYYCSSYTSSSTPYVFGTGTKLTVL	no binding
G01 scFv (scFv, V domains shown, scFv as screened by ELISA) VH: QVQLVQSGAEVKKPGSSVKVSCKASGGTFSSYAISWVRQAPGQGLEWMGGIIPIFGTANYAQKFQGRVTITADESTSTAYMELSSLRSEDTAVYYCASITEGAFDYWGQGTLVTVSS VL: AIQLTQSPSTLSASVGDRVTITCRASRTVGSWLAWYQQKPGKAPKLLIYDASNLQSGVPSRFSGSGSGTEFTLTISSLQPDDLSTYYCQQYNSSPYTFGQGTKVEIK	no binding

Source of measurements: patent US12715909
